assay: Influencing factors stability test (light exposure, high temperature, high humidity); assay type: physicochemical; conditions: solid storage, 60°C, 10 days; read-out: Purity%
Measured Metric: remaining at 240 h (%)
// return numeric value only (unit: %, not printed)

The measured remaining at 240 h associated with FC1(F)Oc2ccc(Nc3ccc4cccc(Cl)c4n3)cc2O1 [crystal form A] reads 100

---

test: Influencing factors stability test (light exposure, high temperature, high humidity); format: physicochemical; settings: solid storage, 40°C, 5 days; read-out: Purity%
Measured Metric: remaining at 120 h (%)
Answer in %, number only, no unit symbol.

Form: molecule = FC1(F)Oc2ccc(Nc3ccc4cccc(Cl)c4n3)cc2O1 [crystal form A] ; remaining at 120 h = 100
